measured-on: Heat shock protein HSP90 (Homo sapiens) (UniProt P07900+P08238)
test-protocol: Inhibition of HSP90 in human H1299 cells assessed as reduction in HIF-1alpha incubated for 72 hrs and subsequently incubated under hypoxic conditions for 12 hrs by Western blot analysis relative to control
Type: cell-based
measured-metric: inhibition

Example results:
- item-smiles: "COc1ccc(N(CCN2CCNCC2)C(=O)c2ccc3c(c2OC)C=CC(C)(C)O3)cc1OC"
  inhibition: "Dose-dependent effect"
- item-smiles: "COc1ccc(N(CCN(C)C)C(=O)c2ccc3c(c2OC)C=CC(C)(C)O3)nc1OC"
  inhibition: "Dose-dependent effect"
- item-smiles: "COc1ccc(N(CCNC(C)=O)C(=O)c2ccc3c(c2OC)C=CC(C)(C)O3)nc1OC"
  inhibition: "Dose-dependent effect"
- item-smiles: "COc1ccc(N(CCN)C(=O)c2ccc3c(c2OC)C=CC(C)(C)O3)cc1OC"
  inhibition: "Dose-dependent effect"
- item-smiles: "COc1ccc(N(CCOCc2ccccc2)C(=O)c2ccc3c(c2OC)C=CC(C)(C)O3)nc1OC"
  inhibition: "Dose-dependent effect"
- item-smiles: "COc1ccc(N(CCN)C(=O)c2ccc3c(c2OC)C=CC(C)(C)O3)nc1OC"
  inhibition: "Dose-dependent effect"
- item-smiles: "COc1ccc(N(CCN2CCOCC2)C(=O)c2ccc3c(c2OC)C=CC(C)(C)O3)nc1OC"
  inhibition: "Dose-dependent effect"

Proceed to the following item.
Q: Name the reported inhibition value associated with the molecule COc1ccc(N(CCCN(C)C)C(=O)c2ccc3c(c2OC)C=CC(C)(C)O3)nc1OC
A: Dose-dependent effect

----------
measured-on: Heat shock protein HSP90 (Homo sapiens) (UniProt P07900+P08238)
test-protocol: Inhibition of HSP90 in human H1299 cells assessed as reduction in HIF-1alpha at 100 nM incubated for 72 hrs and subsequently incubated under hypoxic conditions for 12 hrs by Western blot analysis relative to control
Assay type: cell-based
condition-info: values are per cent of control
Label Fulfilled when response, % of control is strictly below 70%; at or above that, label Not fulfilled.

Q: Is 70% strictly greater than the compound's reported response, % of control? compound: COc1ccc(N(CCCNC(C)=O)C(=O)c2ccc3c(c2OC)C=CC(C)(C)O3)nc1OC
A: Not fulfilled

Q: Is 70% strictly greater than the compound's reported response, % of control? compound: COc1ccc(N(CCN2CCCC2)C(=O)c2ccc3c(c2OC)C=CC(C)(C)O3)nc1OC
A: Fulfilled

Q: Is 70% strictly greater than the compound's reported response, % of control? compound: COc1ccc(N(Cc2cccc(F)c2)C(=O)c2ccc3c(c2OC)C=CC(C)(C)O3)nc1OC
A: Not fulfilled

Q: Is 70% strictly greater than the compound's reported response, % of control? compound: COc1ccc(N(Cc2ccncc2)C(=O)c2ccc3c(c2OC)C=CC(C)(C)O3)nc1OC
A: Fulfilled

Q: Is 70% strictly greater than the compound's reported response, % of control? compound: COc1ccc(N(CCNC(C)=O)C(=O)c2ccc3c(c2OC)C=CC(C)(C)O3)nc1OC
A: Fulfilled

Q: Is 70% strictly greater than the compound's reported response, % of control? compound: COCCN(C(=O)c1ccc2c(c1OC)C=CC(C)(C)O2)c1ccc(OC)c(OC)c1
A: Fulfilled

Q: Is 70% strictly greater than the compound's reported response, % of control? compound: COc1ccc(N(CCC2CCNCC2)C(=O)c2ccc3c(c2OC)C=CC(C)(C)O3)nc1OC
A: Fulfilled

Q: Is 70% strictly greater than the compound's reported response, % of control? compound: CCN(CC)CCN(C(=O)c1ccc2c(c1OC)C=CC(C)(C)O2)c1ccc(OC)c(OC)n1
A: Fulfilled

Q: Is 70% strictly greater than the compound's reported response, % of control? compound: COc1ccc(NC(=O)c2ccc3c(c2OC)C=CC(C)(C)O3)cc1OC
A: Not fulfilled

Q: Is 70% strictly greater than the compound's reported response, % of control? compound: COc1ccc(NC(=O)c2ccc3c(c2OC)C=CC(C)(C)O3)nc1OC
A: Not fulfilled

Q: Is 70% strictly greater than the compound's reported response, % of control? compound: COc1ccc(N(C)C(=O)c2ccc3c(c2OC)C=CC(C)(C)O3)cc1OC
A: Not fulfilled

Q: Is 70% strictly greater than the compound's reported response, % of control? compound: COc1ccc(N(CCCN)C(=O)c2ccc3c(c2OC)C=CC(C)(C)O3)nc1OC
A: Fulfilled

Q: Is 70% strictly greater than the compound's reported response, % of control? compound: COc1ccc(N(CCN2CCOCC2)C(=O)c2ccc3c(c2OC)C=CC(C)(C)O3)c(F)c1OC
A: Fulfilled

Q: Is 70% strictly greater than the compound's reported response, % of control? compound: CNCCN(C(=O)c1ccc2c(c1OC)C=CC(C)(C)O2)c1ccc(OC)c(OC)n1
A: Fulfilled

Q: Is 70% strictly greater than the compound's reported response, % of control? compound: COc1ccc(N(Cc2ccccc2)C(=O)c2ccc3c(c2OC)C=CC(C)(C)O3)nc1OC
A: Fulfilled

Q: Is 70% strictly greater than the compound's reported response, % of control? compound: COc1ccc(N(CCO)C(=O)c2ccc3c(c2OC)C=CC(C)(C)O3)c(F)c1OC
A: Not fulfilled

Q: Is 70% strictly greater than the compound's reported response, % of control? compound: COc1ccc(N(CCN2CCOCC2)C(=O)c2ccc3c(c2OC)C=CC(C)(C)O3)nc1OC
A: Fulfilled

// data source = ChEMBL document CHEMBL4480433
